The reported numbers originate from patent US20230374140A1.

target: T1, NC3 peptide … / HLA-A*02:01 complex (human); experiment: FACS, scFv phage on T2 cells loaded with single peptide
T1 construct: whole, on cells; On pulsed T2 cells; also pulled down from BV173 lysate (HLA-A*02)
outcome_measure: binding result

Clone 1 scFv phage clone (Clone 01 scFv) (scFv, also called phage clone 1) scFv: DIQLTQSPSSLSASVGDRVTITCRASQGIRNDLGWYQQKPGKAPKLMIYAASSLQSGVPSRFSGSGSGTDFTLTISSLQPEDFATYYCLQDYDYPLTFGGGTKLEIKRSRGGGGSGGGGSGGGGSLEMAEVQLVQSGAEVKKPGESLKISCEASGYSFSSNWIAWVRQRPGKGLEWMGIIYPGDSDTRYSPSFQGQVTMSADMSISTAYLQWSSLKASDTAMYYCARFAGPGMWSYGFDYWGQGTLVTVSS : no binding
Clone 7 scFv phage clone (Clone 07 scFv) (scFv) scFv: QSVVTQPPSVSGAPGQRITISCTGSSSNIGAGYDVHWYQQLPGTAPKLLIFGNVNRPSGVPDRFSGSKSGTSASLAITGLQAEDEADYYCQSYDSSLSGWVFGGGTKLTVLGSRGGGGSGGGGSGGGGSLEMAQVQLQQSGAEVKKPGATVKVSCKASGYTFTSYGISWVRQAPGQGLEWMGWISAYNGNTNYAQKLQGRVTMTTDTSTSTAYMELRSLRSDDTAVYYCARMSMSEYIDYWGQGTLVTVSS : no binding
